protocol_details: Plasma levels of Compound 1 over 24 hours after 14 days of suspension administration in healthy volunteers
Format: in vivo
test_conditions: human, oral, 25 mg BID suspension, 0 h post-dose

{"smiles_representation": "NC(=O)N1CCC[C@@H](N(C(=O)NCc2ccc(OC(F)(F)F)cc2F)C2CC2)C1", "concentration at 0 h (ng/mL)": 186}

* * *

protocol_details: Plasma levels of Compound 1 over 72 h, suspension versus tablet, fasted or fed, in healthy volunteers
Assay type: in vivo
test_conditions: human, oral, 100 mg, 100 mg tablet, fed, 1.5 h post-dose, read-out: Plasma level, Mean

{"compound": "NC(=O)N1CCC[C@@H](N(C(=O)NCc2ccc(OC(F)(F)F)cc2F)C2CC2)C1 [Cpd 1]", "output_unit": "ng/mL", "concentration at 1.5 h": 2320}

* * *

protocol_details: Plasma levels of Compound 1 over 24 hours after 14 days of suspension administration in healthy volunteers
Format: in vivo
test_conditions: human, oral, 75 mg BID suspension, 12 h post-dose

{"compound": "NC(=O)N1CCC[C@@H](N(C(=O)NCc2ccc(OC(F)(F)F)cc2F)C2CC2)C1 [Cpd 1]", "concentration at 12 h, ng/mL": 2900}

* * *

protocol_details: Plasma levels of Compound 1 over 72 h, suspension versus tablet, fasted or fed, in healthy volunteers
Assay type: in vivo
test_conditions: human, oral, 100 mg, 100 mg suspension, fasted, 1 h post-dose, read-out: Plasma level, Mean
property_measured: concentration at 1 h (ng/mL)

{"compound": "NC(=O)N1CCC[C@@H](N(C(=O)NCc2ccc(OC(F)(F)F)cc2F)C2CC2)C1 [Cpd 1]", "property_measured": "concentration at 1 h", "output_unit": "ng/mL", "assay_result": 2310}

* * *

protocol_details: Plasma levels of Compound 1 over 24 hours after 14 days of suspension administration in healthy volunteers
Assay type: in vivo
test_conditions: human, oral, 75 mg BID suspension, 1.5 h post-dose

{"molecule": "NC(=O)N1CCC[C@@H](N(C(=O)NCc2ccc(OC(F)(F)F)cc2F)C2CC2)C1 [Cpd 1]", "concentration at 1.5 h": "3550 ng/mL"}

* * *

protocol_details: Plasma levels of Compound 1 over 24 hours after 14 days of suspension administration in healthy volunteers
Type: in vivo
test_conditions: human, oral, 150 mg QD suspension, 6 h post-dose

{"smiles_representation": "NC(=O)N1CCC[C@@H](N(C(=O)NCc2ccc(OC(F)(F)F)cc2F)C2CC2)C1", "concentration at 6 h, ng/mL": 2270}

* * *

protocol_details: Plasma levels of Compound 1 over 24 hours after 14 days of suspension administration in healthy volunteers
Type: in vivo
test_conditions: human, oral, 75 mg BID suspension, 0 h post-dose
property_measured: concentration at 0 h (ng/mL)

{"smiles_representation": "NC(=O)N1CCC[C@@H](N(C(=O)NCc2ccc(OC(F)(F)F)cc2F)C2CC2)C1", "property_measured": "concentration at 0 h", "assay_result": 916}

* * *

protocol_details: Plasma levels of Compound 1 over 72 h, suspension versus tablet, fasted or fed, in healthy volunteers
Type: in vivo
test_conditions: human, oral, 100 mg, 100 mg tablet, fasted, 12 h post-dose, read-out: Plasma level, Mean
Description: FIG. 4 is a graph of the pharmacokinetics of Compound 1 over 72 hours in healthy volunteers in fed or fasted states when administering 100 mg of the compound as a suspension formulation or a tablet. A suspension formulation (100 mg, fasted) and tablet formulation (100 mg, fasted or fed) of Compound 1 was administered to healthy volunteers. Plasma levels of Compound 1 over 72 was measured (FIG. 4). Post-dose plasma levels are recited in Table 16.

{"smiles_representation": "NC(=O)N1CCC[C@@H](N(C(=O)NCc2ccc(OC(F)(F)F)cc2F)C2CC2)C1", "concentration at 12 h": "891 ng/mL"}
